- Tested on: MS2 coat protein
- procedure.details: apparent Kd, MS2 coat protein; higher = weaker binding; RNA-MaP array; FMN 200 µM where present
- experimental.context: ligand present: flavin mononucleotide; designed as: OFF switch for flavin mononucleotide
Where apparent Kd equals or exceeds 100 nM, the correct label is y; where it does not, the label is n.

seq=UACAGACAUGAGGAUCACCCAUGUGAGGAUAUCGAUAACGAUAACAUAAUAUAAACGGCGAGAAGGCACAGCAU group_label=n
seq=AGUAUGAGAGGAUAUACGAAUAAACAUGGAAACAUGAUGGGACAUGAGGAUCACCCAUGUAGAAGGCUCGUACA group_label=y
seq=GGAAAACAUGAGGAUCACCCAUGUGAGGAUAUCGAUGUCCAGGGCCGGGUGCGGGACUCGAGAAGGCACUUGGA group_label=n
seq=UUUAGUUUAGGAUAUGUAGACAUUAACAUGAGGAUCACCCAUGUAGAUCCUGAAUUGACUACAGAAGGAAGCAUUU group_label=y
seq=GUGGCUAGUGCAGGAUAUUAGUGCGUGUAGUAUUGAGAAGGGCACAUGAGGAUCACCCAUGUGAUCAAUCACUGUUAAGGUCGC group_label=n
seq=UGAGCAAGAGGAUAUACAAGGCGACCGUGAGGUCGAGGUUUACAUGAGGAUCACCCAUGUAGAAGGCUUGUUCU group_label=n
seq=GUCCCGAGGGAGAAGGGCUAGGAGGUCCAGCUUAUGUGUGUUGCAACAUGAGGAUCACCCAUGUAGCAGGAUAUCCCUUGUACA group_label=y
seq=UAUAUAUAGUAAGGAUAUGUAAUUAAUUUAUAAACAGAAGGUACUGACAUGAGGAUCACCCAUGUUUUAGUGUGGGCAUGUAGA group_label=y
seq=UUUUAACAUGAGGAUCACCCAUGUGAGGAUAUCGAAAUUUAUAUUAAUAUUAAUUUAUCGAGAAGGCACAUUUU group_label=y
seq=UCACAGUGUCGUUAUCCGUAGCGAACAUGAGGAUCACCCAUGUAGGAUAUGUUAUUAAACUAAUAACAGAAGGACGUUGGUCGG group_label=y
seq=GCACAUGAUACAGGAUAUGUUUUGGAUUUUAUAUUCAGUUAUAUAAUAUUUACAGAAGGGUAUACAUGAGGAUCACCCAUGUGC group_label=n
seq=GUCAGCUCGUGAGGAUAUACAACACUGCUUCGGCAGUGUAUUAAGAGCACAUGAGGAUCACCCAUGUAGAAGGCACGAGCUGAU group_label=n
seq=UGGUACAUGAGGAUCACCCAUGUAAGAGCCCUCAUGCGAUGUAGAAGGUUAAUGCGUGUAGUGCUAAAGGAUAUACAUGAGUUU group_label=n
seq=AAAUUUAACGAAGGAUAUGCUGACAUGAGGAUCACCCAUGUGUGCCUUGUGUUGCUGAAACGGGAGCAGAAGGUCGUAUACAUA group_label=y
seq=ACAUGAGGAUCACCCAUGUUUAUUGGGUACUAUACUAUCAGCAAGGAUAUGCAAAUUUUUUUUACGCAGAAGGUGCAGGAACCU group_label=y
seq=GGUCGUCAAGUCAGGAUAUCGUUUGGUCGGUGUGGCGAGAAGGGACAUGAGGAUCACCCAUGUCGUCUCAUCAG group_label=n
seq=AAAUCAGCAGGAUAUACGAUGUUAUGCUAGAUAGCGGGACCACAUGAGGAUCACCCAUGUAGAAGGGCUAGAUA group_label=n
seq=AAGGAUCGAGGAUAUACAUAGAUACAGAUACAUGUAGACGUACAUGAGGAUCACCCAUGUAGAAGGCGAUUAUA group_label=y
seq=GAGCUAUGAGGAUAUGCAUAUAUACGGUUUCGUGUGGUACUACAUGAGGAUCACCCAUGUAGAAGGCGUGGCUG group_label=n
seq=UCAAUAUAUCAGGAUAUGACUUUUUGUGUUAAGUCAGAAGGGAUAACAUGAGGAUCACCCAUGUGAUAUAGUGA group_label=n
seq=GUAGCAACAUGAGGAUCACCCAUGUAGGAUAUCGCUAUUGUAAUCAUGAAACAUGAUUACAAUAGCGAGAAGGACAUAUGCUAU group_label=n
seq=UAUUUAAGAGGAUAUACAUGAGGAUCACCCAUGUGUGUCAAUACGCGUGAUUUUUCAUGUAGAAGGCUUGGGUA group_label=y
seq=ACGCGUUGGGAGAAGGUACAUUAAAUUAGUUACACAUGAGGAUCACCCAUGUAAGGAUAUCCCAUCGUGUAAUAUUAUACAGCA group_label=n
seq=UGGUGACGUUUCUUCUCGACAUGAGGAUCACCCAUGUAGACAGAGGAUAUCCGAGUUGCCAAUAAGGAGAAGGCUGACUGCGAA group_label=n
seq=GAAGAUGGUGAGGAUAUCAUUAACCACAUCGGAUGAGAAGGUACCACAUGAGGAUCACCCAUGUACAUAUUACU group_label=n
seq=GGUCGGAGCAGAGGAUAUUACAUGAGGAUCACCCAUGUAUGAACCAAUAGCUGGAAACAGCAAUGUAAGAAGGCUGCUCCGACA group_label=y
seq=UCGAUCGGAGGAUAUACUAAUACAACUACUGAAGUGUCAAAACAUGAGGAUCACCCAUGUAGAAGGCCGAUAUA group_label=n
seq=UAUGUUUUUGUGAGGAUAUACUUUGUUUGGUCGUAGUAGAAGGCACAUGAGGAUCACCCAUGUAGAUUUUUGGU group_label=n
seq=UUGUUAUAUGUAGGAUAUGCAUAUUAUUAUUAUGCAGAAGGACAUGAGGAUCACCCAUGUAUAUUAUUAUUAUAUGUUAUAUAU group_label=n

These data points were gathered from the EternaBench riboswitch data.
